The reported numbers originate from ChEMBL document CHEMBL4387781.

- assay_protocol: Volume of distribution at steady state in Sprague-Dawley rat at 1 mg/kg, iv
- Assay type: ADME, organism-based
- details: in vivo, read-out: Vdss
property_measured: Vd (L/kg)
Numeric answer only, unit L/kg assumed.

Fill blank: measured Vd of the molecule C[C@@H](O[C@H]1CC[C@]2(CCC(F)(F)CO2)CC1)c1nc(-c2cc(F)c(CS(C)(=O)=O)c(F)c2)no1 is ____.
3.5

* * *

- assay_protocol: Oral bioavailability in Sprague-Dawley rat at 3 mg/kg
- Type: ADME, organism-based
- details: in vivo
property_measured: bioavailability (%)
Write it as a number; the unit % goes unstated.

For the molecule C[C@@H](O[C@H]1CC[C@]2(CCC(F)(F)CO2)CC1)c1nc(-c2cc(F)c(CS(C)(=O)=O)c(F)c2)no1 , what bioavailability is on record?
43

* * *

- assay_protocol: Clearance in Sprague-Dawley rat at 1 mg/kg, iv
- Type: ADME, organism-based
- details: in vivo
property_measured: clearance (mL/min/kg)
Supply the numeric figure in mL/min/kg, leaving out any unit text.

Quick one: clearance for C[C@@H](O[C@H]1CC[C@]2(CCC(F)(F)CO2)CC1)c1nc(-c2cc(F)c(CS(C)(=O)=O)c(F)c2)no1 ?
8.33

* * *

The molecules listed here are annotated with their remaining at 1 h, 5 µM.
- assay_protocol: Stability in human liver microsomes assessed as parent compound remaining at 5 uM measured after 1 hr
- Type: ADME, Microsome
- details: read-out: Stability
Include the unit after the number when you answer.

Some solved entries appear below for comparison.
1. CC(O[C@H]1CC[C@]2(CCC(C)(C)CO2)CC1)c1nc(-c2ccc(CS(C)(=O)=O)c(F)c2)no1 (some centres undefined) :: 0%
2. C[C@@H](O[C@H]1CC[C@@]2(CC1)CC(F)(F)CO2)c1nc(-c2cc(F)c(CS(C)(=O)=O)c(F)c2)no1 :: 83%
3. CC(O[C@H]1CC[C@@]2(CC1)CC(C)(C)CCO2)c1nc(-c2ccc(CS(C)(=O)=O)c(F)c2)no1 (some centres undefined) :: 0%

Turning now to a further record.
Find the recorded remaining at 1 h, 5 µM belonging to CC(O[C@H]1CC[C@]2(CC1)COC(C)(C)C2)c1nc(-c2ccc(CS(C)(=O)=O)c(F)c2)no1 (mixture of isomers) and report it.
62%

* * *

- measured_target: Glucose-dependent insulinotropic receptor (Homo sapiens)
- Sequence (Q8TDV5 whole entry): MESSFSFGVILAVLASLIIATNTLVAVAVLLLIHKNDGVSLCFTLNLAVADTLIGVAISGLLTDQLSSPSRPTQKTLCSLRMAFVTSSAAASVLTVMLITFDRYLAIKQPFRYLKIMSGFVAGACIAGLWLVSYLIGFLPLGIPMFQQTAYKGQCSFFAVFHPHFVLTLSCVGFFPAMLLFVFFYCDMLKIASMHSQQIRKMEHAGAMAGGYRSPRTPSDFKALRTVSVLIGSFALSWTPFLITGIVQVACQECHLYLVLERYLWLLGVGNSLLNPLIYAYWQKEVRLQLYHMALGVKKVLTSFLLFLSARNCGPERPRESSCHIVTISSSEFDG
- assay_protocol: Agonist activity at recombinant human GPR119 expressed in HEK293 cells assessed as increase in intracellular cAMP accumulation measured after 30 mins
Reported pEC50 values are given for each entry in this list.
Note on units: pEC50 is unitless, being -log10 of a concentration expressed in mol/L.

1) CC(O[C@H]1CC[C@@]2(CC1)CC(C)(C)CO2)c1nc(-c2ccc(CS(C)(=O)=O)c(F)c2)no1 (stereo partly drawn) :: 7.51
2) C[C@@H](O[C@H]1CC[C@]2(CC1)COC(C)(C)C2)c1nc(-c2ccc(CS(C)(=O)=O)c(F)c2)no1 :: 7.57
3) CC(O[C@H]1CC[C@]2(CCC(C)(C)CO2)CC1)c1nc(-c2ccc(CS(C)(=O)=O)c(F)c2)no1 (stereo partly drawn) :: 7.60
4) C[C@@H](O[C@H]1CC[C@]2(CC1)COC(C)(C)C2)c1nc(-c2ccc(CS(C)(=O)=O)c(F)c2F)no1 :: 6.52
5) C[C@@H](O[C@H]1CC[C@@]2(CC1)CC(F)(F)CO2)c1nc(-c2cc(F)c(CS(C)(=O)=O)c(F)c2)no1 :: 8.15
6) C[C@@H](O[C@H]1CC[C@]2(CCC(F)(F)CO2)CC1)c1nc(-c2cc(F)c(CS(C)(=O)=O)c(F)c2)no1 :: 8.22

Quick check: pEC50 of CC(O[C@H]1CC[C@]2(CC1)COC(C)(C)C2)c1nc(-c2ccc(CC(=O)N(C)C)c(F)c2)no1 (mixture of isomers) ?
7.16

I would be grateful if you could share the reported pEC50 for CC(O[C@H]1CC[C@]2(CCCCO2)CC1)c1nc(-c2ccc(CS(C)(=O)=O)c(F)c2)no1 (stereo partly drawn) .
7.07
